Molecular target: hCA XII (Homo sapiens)
Construct: gene CA12; not described; transmembrane tumour-associated isoform
Sequence (O43570 25-354): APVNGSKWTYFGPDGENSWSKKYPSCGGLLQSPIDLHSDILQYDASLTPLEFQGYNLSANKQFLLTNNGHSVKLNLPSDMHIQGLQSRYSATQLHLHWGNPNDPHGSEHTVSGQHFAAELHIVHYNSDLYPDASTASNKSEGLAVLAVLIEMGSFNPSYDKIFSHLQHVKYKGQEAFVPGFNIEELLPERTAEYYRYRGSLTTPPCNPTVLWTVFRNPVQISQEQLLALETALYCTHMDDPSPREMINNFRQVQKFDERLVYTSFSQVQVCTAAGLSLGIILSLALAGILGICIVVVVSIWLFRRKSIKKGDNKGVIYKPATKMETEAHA
Assay: stopped-flow CO2 hydration
Format: biochemical
Just a reminder that ties go to NOT MET: only Ki strictly below 30 nM counts as MET.

CC(=NNc1ccc(S(N)(=O)=O)cc1)c1cc2ccccc2o1 [4a] :: MET
CC(=NNC(=O)c1ccc(S(N)(=O)=O)cc1)c1cc2cc(Br)ccc2o1 [5b] :: NOT MET
NS(=O)(=O)c1ccc(C(=O)NN=C(CS(=O)(=O)c2ccccc2)c2cc3cc(Br)ccc3o2)cc1 [10c] :: NOT MET
Cc1ccc(S(=O)(=O)CC(=NNc2ccc(S(N)(=O)=O)cc2)c2cc3cc(Br)ccc3o2)cc1 [9c] :: MET
Cc1ccc(S(=O)(=O)CC(=NNC(=O)c2ccc(S(N)(=O)=O)cc2)c2cc3cc(Br)ccc3o2)cc1 [10d] :: MET
Cc1ccc(S(=O)(=O)CC(=NNC(=O)c2ccc(S(N)(=O)=O)cc2)c2cc3ccccc3o2)cc1 [10b] :: NOT MET
NS(=O)(=O)c1ccc(C(=O)NN=C(CS(=O)(=O)c2ccccc2)c2cc3ccccc3o2)cc1 [10a] :: NOT MET
NS(=O)(=O)c1ccc(NN=C(CS(=O)(=O)c2ccccc2)c2cc3cc(Br)ccc3o2)cc1 [9b] :: NOT MET

----------
Target: hCA I (Homo sapiens, UniProt P00915)
Construct: gene CA1; not described; cytosolic isoform
Sequence (P00915 2-261): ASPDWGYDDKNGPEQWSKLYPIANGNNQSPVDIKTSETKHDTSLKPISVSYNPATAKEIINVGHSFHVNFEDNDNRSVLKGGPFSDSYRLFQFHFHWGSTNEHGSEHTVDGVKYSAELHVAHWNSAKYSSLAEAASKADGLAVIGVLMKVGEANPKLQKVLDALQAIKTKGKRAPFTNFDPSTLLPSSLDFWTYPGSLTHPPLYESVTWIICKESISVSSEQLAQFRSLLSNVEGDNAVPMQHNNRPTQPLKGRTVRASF
Test: stopped-flow CO2 hydration
Format: biochemical
Below is a list of entries, each paired with its recorded Ki value.
Quantity Measured: Ki (nM)

NS(=O)(=O)c1ccc(C(=O)NN=C(CS(=O)(=O)c2ccccc2)c2cc3ccccc3o2)cc1 [10a] :: 4620
NS(=O)(=O)c1ccc(C(=O)NN=C(CS(=O)(=O)c2ccccc2)c2cc3cc(Br)ccc3o2)cc1 [10c] :: 1820
Cc1ccc(S(=O)(=O)CC(=NNC(=O)c2ccc(S(N)(=O)=O)cc2)c2cc3ccccc3o2)cc1 [10b] :: 3920
NS(=O)(=O)c1ccc(NN=C(CS(=O)(=O)c2ccccc2)c2cc3cc(Br)ccc3o2)cc1 :: 2160
CC(=NNc1ccc(S(N)(=O)=O)cc1)c1cc2cc(Br)ccc2o1 :: 92.7
Cc1ccc(S(=O)(=O)CC(=NNc2ccc(S(N)(=O)=O)cc2)c2cc3cc(Br)ccc3o2)cc1 :: 2500

----------
Target: hCA II (Homo sapiens)
Construct: gene CA2; not described; cytosolic isoform
Test: stopped-flow CO2 hydration
Type: biochemical
# class assignment by measured Ki: low: < 70 nM; middle: ≥ 70 nM and < 600 nM; high: ≥ 600 nM

NS(=O)(=O)c1ccc(C(=O)NN=C(CS(=O)(=O)c2ccccc2)c2cc3cc(Br)ccc3o2)cc1 [10c] :: middle
CC(=NNC(=O)c1ccc(S(N)(=O)=O)cc1)c1cc2cc(Br)ccc2o1 :: low
NS(=O)(=O)c1ccc(NN=C(CS(=O)(=O)c2ccccc2)c2cc3cc(Br)ccc3o2)cc1 :: high
Cc1ccc(S(=O)(=O)CC(=NNC(=O)c2ccc(S(N)(=O)=O)cc2)c2cc3cc(Br)ccc3o2)cc1 [10d] :: high
NS(=O)(=O)c1ccc(C(=O)NN=C(CS(=O)(=O)c2ccccc2)c2cc3ccccc3o2)cc1 [10a] :: middle
Cc1ccc(S(=O)(=O)CC(=NNc2ccc(S(N)(=O)=O)cc2)c2cc3cc(Br)ccc3o2)cc1 :: middle
CC(=NNc1ccc(S(N)(=O)=O)cc1)c1cc2cc(Br)ccc2o1 :: middle
CC(=NNc1ccc(S(N)(=O)=O)cc1)c1cc2ccccc2o1 :: low
CC(=NNC(=O)c1ccc(S(N)(=O)=O)cc1)c1cc2ccccc2o1 :: low
Cc1ccc(S(=O)(=O)CC(=NNc2ccc(S(N)(=O)=O)cc2)c2cc3ccccc3o2)cc1 :: high
Cc1ccc(S(=O)(=O)CC(=NNC(=O)c2ccc(S(N)(=O)=O)cc2)c2cc3ccccc3o2)cc1 [10b] :: middle
